# study-target: eOD-GT8 (monomeric ligand) (Human immunodeficiency virus 1, …)
Exercise: state measured Kd for each of the binders provided.
Your answer is read as nM, so omit the unit and give the number.

Assign Kd to the following record: g28-D78-3_CLK09 (antibody, V domains shown) VH: QLQLVQSGAEVKKPGASVKVSCKASGYTFTGYFIHWIRQAPGQGLEWMGWLNPIYGGVNYARNFQGRVTMTRDTSISTAYLELKRLKSDDTAVYYCARVAERMIFDVWGQGTMVTVSS VL: DIQMTQSPSSLSASVGDRVTIACQASQDINNYVNWYQQKPGKAPKLLIYDASNLETGVPSRFSGSGSGTDFTFTISSLQPEDIATYYCQQYEFFGGGTKVRIK
7.1

Assign Kd to the following record: g28v2-D38-10_CLK19 (antibody, V domains shown) VH: QVQLVQSGAEVKKPGASVKVSCKASGYTFTGYYIHWVRQAPGQGLEWMGWINPNSGGTNYPQKFQGRVTMTRDTSISTAYMELSRLRSDDTAVYYCALWFGEKWTFDIWGQGTMVTVSS VL: DIQMTQSPSSLSASVGDRVTITCQASQDIGNYLNWYHQRPGKAPKLLIYDASNLETGVPSRFSGSGSGPDSTFTISTLQPEDIGTYYCQQYDTFGPGTKVDIK
0.0433
